Each recorded value in this set is attributed to patent US10906900B2.

Biological target: UniProt P10636
Assay: In vitro inhibition of ThT binding and determination of Ki (fluorescence), Tau fibres
I'd be grateful if you could share measured pKi for these entries.
One number for each entry, as −log10 of the molar value.

Solved entries (count: 3):
[
  {
    "molecule": "CN(C)c1ccc(C#Cc2cc3ccncc3[nH]2)cc1 [Compound 22b]",
    "pKi": 8.08
  },
  {
    "molecule": "CN(C)c1ccc(C#Cc2cc3cccnc3[nH]2)cc1 [Compound 22a]",
    "pKi": 8.34
  },
  {
    "molecule": "CN(C)c1ccc(C#Cc2cc3ccc(Cl)nc3[nH]2)cc1 [Compound 22e]",
    "pKi": 7.60
  }
]

Give the reported pKi for this molecule. CN(C)c1ccc(C#Cc2cc3ncccc3[nH]2)cc1 [Compound 22c]
7.92

* * *

Biological target: Tau fibers (Homo sapiens (Human))
Sequence (P10636 other isoform, or with tags, fused parts or gaps): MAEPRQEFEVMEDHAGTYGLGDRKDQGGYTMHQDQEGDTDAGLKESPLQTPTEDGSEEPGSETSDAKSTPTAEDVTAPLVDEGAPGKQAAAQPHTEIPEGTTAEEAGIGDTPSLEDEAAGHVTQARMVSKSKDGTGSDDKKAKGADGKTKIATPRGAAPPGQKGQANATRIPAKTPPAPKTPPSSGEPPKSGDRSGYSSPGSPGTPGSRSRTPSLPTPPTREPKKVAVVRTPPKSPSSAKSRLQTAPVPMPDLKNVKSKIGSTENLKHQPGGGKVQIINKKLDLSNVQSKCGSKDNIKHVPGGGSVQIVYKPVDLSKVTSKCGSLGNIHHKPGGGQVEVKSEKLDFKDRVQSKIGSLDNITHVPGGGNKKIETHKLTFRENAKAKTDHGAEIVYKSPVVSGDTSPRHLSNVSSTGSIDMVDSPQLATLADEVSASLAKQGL
Experiment: In vitro direct determination of Kd and Bmax by fluorescence, Tau fibers
Assay type: binding
Settings: in brackets in the Bmax cell
experimental.readout: Tau Bmax1 (number of sites/monomer)

[
  {
    "molecule": "CN(C)c1ccc(C#Cc2cc3ccc(-c4cccs4)nc3[nH]2)cc1 [Compound 25a]",
    "Tau Bmax1 (number of sites/monomer)": "1/10"
  },
  {
    "molecule": "CN(C)c1ccc(C#Cc2cc3ccncc3[nH]2)cc1 [Compound 22b]",
    "Tau Bmax1 (number of sites/monomer)": "1/30"
  },
  {
    "molecule": "CN(CCF)c1ccc(C#Cc2cc3cccnc3[nH]2)cc1 [Compound 28]",
    "Tau Bmax1 (number of sites/monomer)": "1/20"
  }
]

Dear colleague, could you please provide Tau Bmax1 (number of sites/monomer) for the molecules listed below?
1. CN(C)c1ccc(C#Cc2cc3ncccc3[nH]2)cc1 [Compound 22c]
2. CNc1ccc(/C=C/c2ccc(OCCOCCOCCF)nc2)cc1 [AV45, reference compound]

1/40
1/11

* * *

What Aβ Bmax1 (number of sites/monomer) was measured for each of the following?
Target: Aβ1-42 fibers (Homo sapiens, UniProt P05067)
Sequence (P05067 672-713 limits assumed): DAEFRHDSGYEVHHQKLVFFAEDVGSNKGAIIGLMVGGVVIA
Assay: In vitro direct determination of Kd and Bmax by fluorescence, Aβ1-42 fibers
Type: binding
Settings: in brackets in the Bmax cell

Here are 5 compounds together with their reported answers.
[
  {
    "compound": "CC(=C(C#N)C#N)c1ccc2cc(N(C)CCF)ccc2c1 [FDDNP, reference compound]",
    "Aβ Bmax1 (number of sites/monomer)": "1/100"
  },
  {
    "compound": "CN(C)c1ccc(C#Cc2cc3ccncc3[nH]2)cc1 [Compound 22b]",
    "Aβ Bmax1 (number of sites/monomer)": "1/400"
  },
  {
    "compound": "CNc1ccc(/C=C/c2ccc(OCCOCCOCCF)nc2)cc1 [AV45, reference compound]",
    "Aβ Bmax1 (number of sites/monomer)": "1/300"
  },
  {
    "compound": "CN(C)c1ccc(C#Cc2cc3cnccc3[nH]2)cc1 [Compound 22d]",
    "Aβ Bmax1 (number of sites/monomer)": "1/400"
  },
  {
    "compound": "CN(C)c1ccc(C#Cc2cc3ccc(-c4ccc(F)nc4)nc3[nH]2)cc1 [Compound 25c]",
    "Aβ Bmax1 (number of sites/monomer)": "1/90"
  }
]

Hey, quick one: what's Aβ Bmax1 (number of sites/monomer) for each of these?
1. CN(C)c1ccc(C#Cc2cc3ccc(-c4cccs4)nc3[nH]2)cc1 [Compound 25a]
2. CN(CCF)c1ccc(C#Cc2cc3cccnc3[nH]2)cc1
3. CN(C)c1ccc(C#Cc2cc3ccc(-c4ccsc4)nc3[nH]2)cc1 [Compound 25b]
4. CN(C)c1ccc(C#Cc2cc3ccc(F)nc3[nH]2)cc1 [Compound 22f]
5. CN(C)c1ccc(C#Cc2cc3cccnc3[nH]2)cc1 [Compound 22a]
6. CN(C)c1ccc(C#Cc2cc3ncccc3[nH]2)cc1 [Compound 22c]

1/170
1/600
1/90
1/50
1/300
1/700
